# protocol description: chemical genetic growth profiling, strain panel (AID 1159580);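 also: tested at 20 µM; growth read once vehicle control cultures reached saturation at 30 °C; 1 = growth at the plate median or of vehicle wells; lower values mean less growth of the strain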
# setup conditions: S. cerevisiae deletion strains, growth OD, locus YMR307W, strain GAS1, active compounds read low
Out of some 5,500 compounds screened, about 2,000 (36%) were called active. Not shown: some 18% with an inconclusive outcome. Some of the results follow.
Consider the cut-off 1. If the recorded normalized growth is strictly smaller, the label is fulfilled; if not, the label is not fulfilled.

1) CCCS(=O)(=O)c1c(C)c(C)n(Cc2ccccc2)c1N | not fulfilled
2) CO[C@H]1[C@H](O)[C@H](O[C@H]2CC[C@]3(C)C4CC[C@]5(C)C(C6=CC(=O)OC6)CC[C@]5(O)C4CC[C@@H]3C2)O[C@@H](C)[C@@H]1O (some centres undefined) | not fulfilled
3) CC(N)CCCC(C)(C)O (centres undefined) | not fulfilled
4) CC(C)(OC(=O)c1ccccc1)[C@@H]1Cc2cc3ccc(=O)oc3cc2O1 | fulfilled
5) CCOc1ccc(/C=C(\C#N)c2cccc(Cl)c2)cc1 | fulfilled
6) CN(C)c1ccc(C(=C2C=CC(=[N+](C)C)C=C2)c2ccc(N(C)C)cc2)cc1 | fulfilled
7) CCCCCCCCCCCCCCCC[N+](C)(C)C | fulfilled
8) COc1cc2c(cc1OC)C(=O)OC2 | not fulfilled
9) COc1ccc2cc([C@H](C)CO)ccc2c1 | not fulfilled
10) CCOC(=O)c1cc(C)nc(Sc2ccccc2)c1C#N | fulfilled
11) CCN(CC)CCNC(=O)c1cc(Br)c(N)cc1OC | not fulfilled
12) COc1ccc2c(c1OC)C(=O)O[C@@H]2[C@H]1c2cc3c(cc2CCN1C)OCO3 | not fulfilled
13) OCC(O)C(O)C(O)CO (centres undefined) | not fulfilled
14) C=CCN1C[C@@H](C)N([C@H](c2ccc(C(=O)N(CC)CC)cc2)c2cccc(OC)c2)C[C@@H]1C | not fulfilled

###

# protocol description: chemical genetic growth profiling, strain panel (AID 1159580)
# setup conditions: S. cerevisiae deletion strains, growth OD, locus YBR135W, strain CKS1, active compounds read low
Screen size: about 5,500 compounds; about 2,000 (36%) were called active. Roughly 18% stayed inconclusive and do not appear here. The list shows a part of the results.
Reported normalized growth values follow for various compounds
property label: normalized growth

1) Cc1cc(Cl)ccc1NNC(=O)c1snnc1C | 0.967
2) Cc1ccc(Sc2c(Sc3ccc(C)cc3)c(=O)c2=O)cc1 | 0.961
3) Cc1cc(Cl)ccc1NNC(=O)c1ccno1 | 0.981
4) Cc1nnsc1C(=O)Nc1cc(C(F)(F)F)cc(C(F)(F)F)c1 | 0.953
5) CSC1=NNC(c2nn(C)cc2Cl)S1 (configuration not stated) | 0.582
6) Cc1cc(NNC(=O)c2ccccc2Cl)nc2c1c(C)nn2C | 0.979
7) Cc1nnsc1C(=O)NNc1ccc(F)cc1F | 0.956

###

Entries and their measured normalized growth follow.
# protocol description: chemical genetic growth profiling, strain panel (AID 1159580);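 also: tested at 20 µM; growth read once vehicle control cultures reached saturation at 30 °C; 1 = growth at the plate median or of vehicle wells; lower values mean less growth of the strain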
# setup conditions: S. cerevisiae deletion strains, growth OD, locus YLR342W, strain FKS1, active compounds read low
About 2,000 (36%) of roughly 5,500 compounds were called active. Not shown: some 18% with an inconclusive outcome. This is one part of the list.
property label: normalized growth

1. CCOC(=O)CCC(=O)O[C@H]1[C@H](O[C@@H]2[C@@H](C)[C@H](O[C@H]3C[C@@](C)(OC)[C@@H](O)[C@H](C)O3)[C@@H](C)C(=O)O[C@H](CC)[C@@](C)(O)[C@H](O)[C@@H](C)C(=O)[C@H](C)C[C@@]2(C)O)O[C@H](C)C[C@@H]1N(C)C | 0.985
2. CC(=O)O[C@H]1[C@@H]2[C@@H](OC(=O)Cc3ccccc3)[C@@H](C)C[C@]2(OC(C)=O)C(=O)/C(C)=C/[C@H]2[C@H](CC[C@@]13CO3)C2(C)C | 0.966
3. NC(=O)c1ccc[n+]([C@@H]2O[C@H](COP(=O)([O-])OP(=O)(O)OC[C@H]3O[C@@H](n4cnc5c(N)ncnc54)[C@H](O)[C@@H]3O)[C@@H](O)[C@H]2O)c1 | 1.02
4. CN(C)CC/C=C1\c2ccccc2Sc2ccc(Cl)cc21 | 0.724
5. CN1CCC(=C2c3ccccc3CC(=O)c3sccc32)CC1 | 0.967
6. NCCSSCCN | 0.983
7. CN1CCC(=C2c3ccccc3Sc3ccccc32)CC1 | 1.03

###

Let's look at some molecules and their measured normalized growth.
# protocol description: chemical genetic growth profiling, strain panel (AID 1159580);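 also: tested at 20 µM; growth read once vehicle control cultures reached saturation at 30 °C; 1 = growth at the plate median or of vehicle wells; lower values mean less growth of the strain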
# setup conditions: S. cerevisiae deletion strains, growth OD, locus YPR167C, strain met16, active compounds read low
About 2,000 (36%) of roughly 5,500 compounds were called active. About 18% were inconclusive and are not listed. The list shows a part of the results.
property label: normalized growth

1) C[C@]12CCC(=O)C=C1CCC1C2CC[C@@]2(C)C1CC[C@@H]2O (some centres not stated) | 1.03
2) OCCN1C[C@@H](O)[C@@H](O)C(O)C1CO (some centres not stated) | 0.997
3) CCC(=O)O[C@H]1CCC2C3CCC4=CC(=O)CC[C@]4(C)C3CC[C@@]21C (some centres not stated) | 0.971
4) CN1CCC(=C2c3ccccc3CC(=O)c3sccc32)CC1 | 1
5) CCN(CC)CCNC(=O)c1cc(Br)c(N)cc1OC | 0.991
6) ClC1=C(Cl)C2(Cl)C3C4C=CC(C4)C3C1(Cl)C2(Cl)Cl (configuration not stated) | 0.977
7) CN1CCC(=C2c3ccccc3Sc3ccccc32)CC1 | 1.01
8) ClC1=C(Cl)C2(Cl)C3C(Cl)C=CC3C1(Cl)C2(Cl)Cl (configuration not stated) | 0.976
9) COc1ccc2c(c1OC)C(=O)O[C@@H]2[C@H]1c2cc3c(cc2CCN1C)OCO3 | 1.02
10) COc1ccc2c3c1O[C@H]1C[C@@H](O)C=C[C@@]31CCN(C)C2 | 1.01
11) CN(C)C(=S)SSC(=S)N(C)C | 0.0614
12) NC(=O)c1ccc[n+]([C@@H]2O[C@H](COP(=O)([O-])OP(=O)(O)OC[C@H]3O[C@@H](n4cnc5c(N)ncnc54)[C@H](O)[C@@H]3O)[C@@H](O)[C@H]2O)c1 | 0.998

###

# protocol description: chemical genetic growth profiling, strain panel (AID 1159580);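 also: tested at 20 µM; growth read once vehicle control cultures reached saturation at 30 °C; 1 = growth at the plate median or of vehicle wells; lower values mean less growth of the strain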
# setup conditions: S. cerevisiae deletion strains, growth OD, locus YBR021W, strain FUR4, active compounds read low
Among all 5,500 compounds or so, about 2,000 (36%) were called active. About 18% were inconclusive and are not listed. The list shows a part of the results.
# normalized growth annotations
property label: normalized growth

1. COc1cc2c(cc1OC)C1C(=O)c3c(OC)cc4c(c3OC1CO2)CCC(C)(C)O4 (configuration not stated) | 1.02
2. CC(=O)OCC[N+](C)(C)C | 1.06
3. COC1=CC(=O)C[C@@H](C)[C@]12Oc1c(Cl)c(OC)cc(OC)c1C2=O | 1
4. C=C1C([C@]2(C)C(CC(=O)OC)[C@@](C)(COC(C)=O)OC(=O)C[C@@H]2OC(C)=O)[C@@H](OC=O)[C@H](OC(=O)C(O)C(C)CC)[C@@]2(C)[C@H](c3ccoc3)CC(=O)C12O (some centres not stated) | 0.996
5. Cc1cccc(C)c1OCC(C)N (configuration not stated) | 0.997
6. NC(=O)c1ccc[n+]([C@@H]2O[C@H](COP(=O)([O-])OP(=O)(O)OC[C@H]3O[C@@H](n4cnc5c(N)ncnc54)[C@H](O)[C@@H]3O)[C@@H](O)[C@H]2O)c1 | 0.996
7. CC1(C)C(C=C(Cl)Cl)C1C(=O)OC(C#N)c1cccc(Oc2ccccc2)c1 (configuration not stated) | 0.962
8. CC(=O)[C@H]1CCC2C3CCC4=CC(=O)CC[C@]4(C)C3CC[C@@]21C (some centres not stated) | 0.93
9. CCOC(=O)C(=O)C1(C(=O)OCC)Oc2cc(OC)cc(OC)c2C(=O)C1c1ccccc1 (configuration not stated) | 0.818
10. C[N+](C)(C)CCOC(N)=O | 1.06
11. C[C@H]1CC2C([C@@H](O)C[C@@]3(C)C2CC[C@]3(O)C(=O)CO)[C@@]2(C)C=CC(=O)C=C12 (some centres not stated) | 0.972
12. CC(C)(O)[C@@H]1[C@H]2OC(=O)[C@@H]1[C@]1(O)C[C@H]3O[C@]34C(=O)O[C@H]2[C@]14C | 1
13. CCOC(=O)c1c(C)cc(O)c(C)c1O | 0.975
14. CC(C(=O)O)c1cccc(C(=O)c2ccccc2)c1 (configuration not stated) | 1.01
15. CCCCCCCCCCCCCCCC[N+](C)(C)C | 0.123
16. COc1ccc(OC)c(C(O)C(C)N)c1 (configuration not stated) | 1.01
17. CC(C(=O)O)c1ccc(-c2ccccc2)c(F)c1 (configuration not stated) | 0.936
18. OCC(O)C(O)C(O)CO (configuration not stated) | 1.07
19. O=C(O)c1cc2ccccc2[nH]1 | 0.98
20. C[N+](C)(C)CCCCCC[N+](C)(C)C | 0.997
21. C[C@]12CCC(=O)C=C1CCC1C2CC[C@@]2(C)C1CC[C@@H]2O (some centres not stated) | 0.97
22. O=C(O)C1(O)C[C@@H](O)C(O)[C@H](O)C1 (some centres not stated) | 1.01
